Measured Kd by item
# Target or system: HIF-2α PAS-B (Homo sapiens, UniProt Q99814)
# Sequence (Q99814 240-350): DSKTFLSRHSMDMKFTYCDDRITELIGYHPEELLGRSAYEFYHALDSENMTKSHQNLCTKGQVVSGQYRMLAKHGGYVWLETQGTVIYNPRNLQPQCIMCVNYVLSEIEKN
# Assay method text: Isothermal titration calorimetry (ITC) on HIF-2α PAS-B;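 also: Wild-type protein (200 µM) titrated into 5-10 µM compound, heats of dilution from a compound-free titration subtracted, isotherms fit to a single-site model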
Response body: numeric value in µM, unit text excluded.

[
  {
    "Molecule": "Clc1cccc([C@H]2C[C@@H](c3cccc(Br)c3)Nc3nnnn32)c1 [Compound 57]",
    "Parameter": "Kd",
    "Observed measurement": 0.133
  }
]

**Q:** Consider the molecule Brc1cccc([C@H]2C[C@@H](c3ccccc3Br)n3nnnc3N2)c1 (racemic) [Compound 54] . State its measured Kd.
**A:** 0.565

**Q:** Fill in Kd for record Clc1ccc(Br)cc1[C@H]1C[C@@H](c2cccc(Br)c2)Nc2nnnn21 [Compound 60]
**A:** 0.192

**Q:** Identify Kd associated with the molecule Clc1cccc([C@@H]2C[C@H](c3cccc(Br)c3)Nc3nnnn32)c1 (racemic) [Compound 56]
**A:** 0.106

====

# Target or system: HIF-2α PAS-B*/ARNT PAS-B* heterodimer (Homo sapiens, UniProt Q99814, R247E)
# Sequence (Q99814 240-350 R247E, one chain of several): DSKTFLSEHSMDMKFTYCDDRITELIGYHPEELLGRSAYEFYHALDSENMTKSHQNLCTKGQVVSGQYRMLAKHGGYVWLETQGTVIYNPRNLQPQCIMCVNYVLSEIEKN
# Assay method text: AlphaScreen, HIF-2α PAS-B*/ARNT PAS-B* heterodimerization
IC50 values, listed per item

Check out these entries, answers already filled in.
[
  {
    "Chem smiles": "O=[N+]([O-])c1c(NCc2cc(F)ccc2F)ccc2nonc12",
    "Target or system": "HIF-2α PAS-B*/ARNT PAS-B* heterodimer (Homo sapiens, UniProt Q99814, R247E)",
    "Observed measurement": "> 10 µM"
  },
  {
    "Chem smiles": "Cc1ccc(CNc2ccc3nonc3c2[N+](=O)[O-])cc1",
    "Target or system": "HIF-2α PAS-B*/ARNT PAS-B* heterodimer (Homo sapiens, UniProt Q99814, R247E)",
    "Observed measurement": "> 10 µM"
  },
  {
    "Chem smiles": "O=[N+]([O-])c1c(NCc2ccc(F)cc2C(F)(F)F)ccc2nonc12",
    "Target or system": "HIF-2α PAS-B*/ARNT PAS-B* heterodimer (Homo sapiens, UniProt Q99814, R247E)",
    "Observed measurement": "> 30 µM"
  },
  {
    "Chem smiles": "O=[N+]([O-])c1c(Nc2cc(F)cc(F)c2)ccc2nonc12",
    "Target or system": "HIF-2α PAS-B*/ARNT PAS-B* heterodimer (Homo sapiens, UniProt Q99814, R247E)",
    "Observed measurement": "> 1 µM"
  }
]

**Q:** // Input: Fc1c(Br)ccc(Br)c1[C@H]1C[C@@H](c2cccc(Br)c2)Nc2nnnn21 . Output its IC50 only.
**A:** < 0.01 µM

**Q:** Look up IC50 of O=[N+]([O-])c1c(NCc2cc(F)ccc2C(F)(F)F)ccc2nonc12 and report it.
**A:** > 30 µM

**Q:** Indicate its recorded IC50; the compound in question is O=[N+]([O-])c1c(NCc2ccccc2)ccc2nonc12
**A:** > 5 µM

====

# Target or system: HIF-2α PAS-B*/ARNT PAS-B* heterodimer (Homo sapiens, UniProt Q99814, R247E)
# Assay method text: AlphaScreen, HIF-2α PAS-B*/ARNT PAS-B* heterodimerization;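 also: GST-tagged HIF-2α PAS-B* and FLAG-tagged ARNT PAS-B* with glutathione donor and anti-FLAG acceptor beads, luminescence after 680 nm excitation, loss of signal indicating disrupted heterodimer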
Parameter: IC50 (nM)
# unit: nM | format: bare number

// worked examples, IC50 included
[
  {
    "Compound": "Clc1cccc([C@@H]2C[C@H](c3cccc(Br)c3)Nc3nnnn32)c1 (racemic)",
    "Target or system": "HIF-2α PAS-B*/ARNT PAS-B* heterodimer (Homo sapiens, UniProt Q99814, R247E)",
    "IC50, nM": 200
  },
  {
    "Compound": "O=[N+]([O-])c1cc(Nc2ccc3nonc3c2[N+](=O)[O-])ccc1Cl",
    "Target or system": "HIF-2α PAS-B*/ARNT PAS-B* heterodimer (Homo sapiens, UniProt Q99814, R247E)",
    "IC50, nM": 200
  }
]

Field: next compound
**Q:** Return value of IC50 for input Fc1c(Cl)cccc1[C@@H]1C[C@H](c2cccc(Br)c2)Nc2nnnn21 (racemic) , no commentary.
**A:** 200
